These data points were gathered from PubChem BioAssay AID248.

# T/C annotations
- Tested on: L1210 leukemia ip in BDF1 mice, survival T/C
- Protocol Details: NCI In Vivo Anticancer Drug Screen. Data for tumor model L1210 Leukemia (intraperitoneal) in B6D2F1 (BDF1) mice
- Experimental Setup: endpoint: mean survival time; dose: 100.0 mg/kg/injection; schedule: Q01DX001 (ip); vehicle: saline; higher = longer survival
Inconclusive results and toxic doses are left out.

See these solved cases before continuing.
Molecule: COc1ccc2c(c1OC)-c1c3c(cc4c1C(C2)N(C)CC4)OCO3 (configuration not stated)
T/C: 98 % of control
//
Molecule: C=C1CCC2C(O)CCN2C1=O (configuration not stated)
T/C: 109 % of control
//
Molecule: Cc1ccc2ccc(-c3ccccc3)nc2c1
T/C: 96 % of control
//
Molecule: O=C1NC(=O)c2cc([N+](=O)[O-])cc3cccc1c23
T/C: 94 % of control

stdin: Consider the molecule "O=C(N/N=C\c1cc(=O)[nH]c(=O)[nH]1)c1ccncc1" and give its measured T/C.
stdout: 95 % of control

stdin: Consider the molecule "S=P(N1CCCCCC1)(N1CC1)N1CC1" and give its measured T/C.
stdout: 113 % of control

stdin: Consider the molecule C/C=C\C(O)(C(=O)OC)c1ccccc1 (configuration not stated) and give its measured T/C.
stdout: 97 % of control

---

- System: L1210 leukemia ip in BDF1 mice, survival T/C
- Protocol Details: NCI In Vivo Anticancer Drug Screen. Data for tumor model L1210 Leukemia (intraperitoneal) in B6D2F1 (BDF1) mice
- Experimental Setup: endpoint: mean survival time; dose: 400.0 mg/kg/injection; schedule: Q04DX003 (ip); vehicle: Klucel (hydroxypropylcellulose) (HPC); higher = longer survival
Toxic doses and inconclusive results are not listed.
# T/C annotations

Compound: O=C(Nc1cccc(C(F)(F)F)c1)Nc1ccc(Cl)cc1Cl
Result: 92 % of control
--
Compound: CCOc1ccc(N2CSC(=S)N(c3ccc(OCC)cc3)C2)cc1
Result: 92 % of control
--
Compound: CCOC(=O)c1ccc(NS(C)(=O)=O)cc1
Result: 100 % of control
--
Compound: CC(=O)N(N=Nc1ccccc1)c1cccc2ccccc12
Result: 108 % of control
--
Compound: O=C(Nc1ccc([N+](=O)[O-])cc1)Nc1ccc([N+](=O)[O-])cc1
Result: 98 % of control
--
Compound: O=C(CCc1ccc(N(CCCl)CCCl)cc1)NC1CCCC1
Result: 115 % of control

stdin: Consider the compound "Cn1[nH]c(=O)c2ccccc2c1=O" and give its measured T/C.
stdout: 103 % of control

stdin: Consider the compound COC(=O)C(c1ccccc1)C(Br)C(=O)c1ccccc1 (stereo not given) and give its measured T/C.
stdout: 95 % of control

stdin: Consider the compound "CC(=O)CCCC1C(=O)N(c2ccccc2)N(c2ccccc2)C1=O" and give its measured T/C.
stdout: 96 % of control

stdin: Consider the compound "CCCCCCCCCCCC(=O)NC(=S)Nc1ccc([N+](=O)[O-])cc1OC" and give its measured T/C.
stdout: 102 % of control

stdin: Consider the compound "Cc1ccc(C(=O)/C=C\c2ccc(Cl)cc2Cl)cc1" and give its measured T/C.
stdout: 92 % of control

---

- Test system: L1210 leukemia ip in BDF1 mice, survival T/C
- Protocol Details: NCI In Vivo Anticancer Drug Screen. Data for tumor model L1210 Leukemia (intraperitoneal) in B6D2F1 (BDF1) mice
- Experimental Setup: endpoint: mean survival time; dose: 50.0 mg/kg/injection; schedule: Q01DX009 (ip); vehicle: saline with Tween-80; higher = longer survival
- Description: The antitumor activity of compounds was measured in mice bearing transplantable tumors. Survival or tumor size were measured and the results are expressed as the measurement made in the treated group (T) divided by the measurement made in the vehicle treated control group (C). The tumor model used in this assay is L1210 Leukemia (intraperitoneal) in B6D2F1 (BDF1) mice
Toxic doses and inconclusive results are not listed.
# T/C annotations

Compound: CCCCCCCCCCCCCCCCOP(=O)(O)OCCCCCCCCCCCCCCCC
T/C: 98 % of control

Compound: CCCC(=O)Nc1cc2c3c(c1)CCCN3CCC2
T/C: 96 % of control

Compound: N#CC1(C#N)C2C=CC(C3CCC=C32)C1(C#N)C#N (stereo unspecified)
T/C: 111 % of control

Compound: O=C(c1ccccc1)c1ccsc1C(=O)c1ccccc1
T/C: 89 % of control

Compound: NC(=O)C[CH2][Sn]([c]1ccccc1)([c]1ccccc1)[c]1ccccc1
T/C: 101 % of control

// moving on: another record for T/C
stdin: Consider the compound "COC(=O)C(CC/C(=N\NC(N)=O)c1ccccc1)C(=O)OC" and give its measured T/C.
stdout: 98 % of control

---

- System: L1210 leukemia ip in BDF1 mice, survival T/C
- Protocol Details: NCI In Vivo Anticancer Drug Screen. Data for tumor model L1210 Leukemia (intraperitoneal) in B6D2F1 (BDF1) mice
- Experimental Setup: endpoint: mean survival time; dose: 400.0 mg/kg/injection; schedule: Q04DX003 (ip); vehicle: water; higher = longer survival
Inconclusive results and toxic doses are left out.
Value Type: T/C

Compound: OCCSc1ncc2cnccn12
Value Type: T/C
Result: 95 % of control
//
Compound: CC(=O)OC/C=C(\C)CCC1OC1(C)C (centres undefined)
Value Type: T/C
Result: 101 % of control
//
Compound: Cn1cnccc1=O
Value Type: T/C
Result: 106 % of control

// moving on: another record for T/C
stdin: Consider the compound CC(=O)N1C=Cn2c(cnc2C)C1O (centres undefined) and give its measured T/C.
stdout: 98 % of control

---

- Test system: L1210 leukemia ip in BDF1 mice, survival T/C
- Protocol Details: NCI In Vivo Anticancer Drug Screen. Data for tumor model L1210 Leukemia (intraperitoneal) in B6D2F1 (BDF1) mice
- Experimental Setup: endpoint: mean survival time; dose: 50.0 mg/kg/injection; schedule: Q04DX003 (ip); vehicle: saline; higher = longer survival
Inconclusive results and toxic doses are left out.
Value Type: T/C

Molecule: C#CC(O)(/C=C\Cl)CC (centres undefined)
Result: 95 % of control

Molecule: CC(C)C(C(=O)O)N(C)N=O (centres undefined)
Result: 94 % of control

Molecule: Cc1ccc[n+](Cc2ccccc2)c1
Result: 97 % of control

stdin: What measured T/C is associated with C#CCOCC1CNC(=O)O1 (centres undefined) on L1210 leukemia ip in BDF1 mice, survival T/C?
stdout: 105 % of control

stdin: What measured T/C is associated with "NC(=O)/C=C\C(N)=O" on L1210 leukemia ip in BDF1 mice, survival T/C?
stdout: 100 % of control

stdin: What measured T/C is associated with CCN(CC)CC(=O)NCC(CCCN1CCCCC1)(c1cccc2ccccc12)C(C)C (centres undefined) on L1210 leukemia ip in BDF1 mice, survival T/C?
stdout: 96 % of control

stdin: What measured T/C is associated with "O=S(=O)(O)F" on L1210 leukemia ip in BDF1 mice, survival T/C?
stdout: 96 % of control

stdin: What measured T/C is associated with "OCC#CCO" on L1210 leukemia ip in BDF1 mice, survival T/C?
stdout: 95 % of control

stdin: What measured T/C is associated with "O=C(OC(=O)C1CC1)C1CC1" on L1210 leukemia ip in BDF1 mice, survival T/C?
stdout: 88 % of control

stdin: What measured T/C is associated with "CCOC(OCC)n1ncnc1NC(=S)NCc1ccccc1" on L1210 leukemia ip in BDF1 mice, survival T/C?
stdout: 100 % of control

stdin: What measured T/C is associated with ClC1(Cl)C2CCCCC21N1CCCCC1 (centres undefined) on L1210 leukemia ip in BDF1 mice, survival T/C?
stdout: 115 % of control

stdin: What measured T/C is associated with CCN1CCC(CCOC)(CN2c3ccccc3Sc3ccccc32)C1 (centres undefined) on L1210 leukemia ip in BDF1 mice, survival T/C?
stdout: 104 % of control

stdin: What measured T/C is associated with CN(C)CCC1CCCCN1 (centres undefined) on L1210 leukemia ip in BDF1 mice, survival T/C?
stdout: 101 % of control

stdin: What measured T/C is associated with COc1ccc(C2c3cc4c(c(OC)c3CC3OCC(=O)C32)OCO4)cc1OC (centres undefined) on L1210 leukemia ip in BDF1 mice, survival T/C?
stdout: 110 % of control

---

- Tested on: L1210 leukemia ip in BDF1 mice, survival T/C
- Protocol Details: NCI In Vivo Anticancer Drug Screen. Data for tumor model L1210 Leukemia (intraperitoneal) in B6D2F1 (BDF1) mice
- Experimental Setup: endpoint: mean survival time; dose: 200.0 mg/kg/injection; schedule: Q01DX009 (ip); vehicle: saline sonified; higher = longer survival
Toxic doses and inconclusive results are not listed.
Value Type: T/C

See these solved cases before continuing.
Compound: O=C1NC(=O)c2cc([N+](=O)[O-])cc3cccc1c23
T/C: 95 % of control
//
Compound: CC(C)N1CCOC1c1ccccc1 (stereo not given)
T/C: 100 % of control
//
Compound: COc1cc2c(cc1OC)C(=O)CN(S(=O)(=O)c1ccc(C)cc1)CC2
T/C: 89 % of control
//
Compound: C/C(=N\Nc1ccc([N+](=O)[O-])cc1[N+](=O)[O-])C(F)(F)F
T/C: 98 % of control

// moving on: another record for T/C
stdin: Consider the compound O=C(O)C1CCCC2C(O)CCC(=O)C12 (stereo not given) and give its measured T/C.
stdout: 102 % of control
